- Tested on: MES SA DX (human uterine sarcoma cell line with marked multidrug resistance)
- conditions_used: read-out: IC50 MES SA DX
pIC50: −log10 of the molar value. Square brackets hold non-standard residues; d marks the D form. Peptide text beside a SMILES is read from it. * marks the point of attachment. Dolaproine = CO[C@@H]([C@@H]1CCCN1)[C@@H](C)C(=O)O; Dil = CC[C@H](C)[C@H](NC)[C@@H](CC(=O)O)OC; X1 = C[C@@H](N*)[C@@H](O)c1ccccc1; NMeV = CN[C@H](C(=O)O)C(C)C
I'd be grateful if you could share measured pIC50 for these entries.

COc1c2c(c(O)c3c4c(c(C)cc13)[C@@H]1O[C@@]3(C(OC)OC)O[C@@H]1[C@@](O[C@H]1C[C@@H](O)[C@@](O)(C(C)=O)[C@H](C)O1)(O4)[C@@]31CO1)C(=O)[C@@H](O)C[C@@H]2O[C@H]1C[C@@](C)(O)[C@H](O)[C@H](C)O1 [Trioxacarcin D, reference compound] : < 6.00
CC[C@H](C)[C@@H]([C@@H](CC(=O)N1CCC[C@H]1[C@H](OC)[C@@H](C)C(=O)N[C@H](C)[C@@H](O)c1ccccc1)OC)N(C)C(=O)[C@@H](NC(=O)[C@@H](NC)C(C)C)C(C)C [MMAE, monomethyl auristatin E, reference compound] (H-[NMeV]V[Dil][Dolaproine]-X1) : < 7.15

# input Look at this compound and give its reported pIC50. COc1c2c(c(O)c3c4c(c(C)cc13)C1OC3(C5OCCCO5)OC1[C@@](OCC=CCO[C@@]15Oc6c(c(C)cc7c(OC)c8c(c(O)c67)C(=O)CCC8)C6OC(C7OCCCO7)(OC61)[C@]51CO1)(O4)[C@@]31CO1)C(=O)CCC2 (stereo partly drawn) [Trx24]
# output < 6.00
